molecular target: NADPH oxidase 5 (Homo sapiens) (UniProt Q96PH1); assay: compounds shifting NOX5 Amplex Red fluorescence – cell-based, HEK293-NOX5, NOX inhibitor project, primary screen (AID 1161); details: HEK293-NOX5, ionomycin, 45 min, higher = more signal
Sequence (Q96PH1 whole entry, looked up): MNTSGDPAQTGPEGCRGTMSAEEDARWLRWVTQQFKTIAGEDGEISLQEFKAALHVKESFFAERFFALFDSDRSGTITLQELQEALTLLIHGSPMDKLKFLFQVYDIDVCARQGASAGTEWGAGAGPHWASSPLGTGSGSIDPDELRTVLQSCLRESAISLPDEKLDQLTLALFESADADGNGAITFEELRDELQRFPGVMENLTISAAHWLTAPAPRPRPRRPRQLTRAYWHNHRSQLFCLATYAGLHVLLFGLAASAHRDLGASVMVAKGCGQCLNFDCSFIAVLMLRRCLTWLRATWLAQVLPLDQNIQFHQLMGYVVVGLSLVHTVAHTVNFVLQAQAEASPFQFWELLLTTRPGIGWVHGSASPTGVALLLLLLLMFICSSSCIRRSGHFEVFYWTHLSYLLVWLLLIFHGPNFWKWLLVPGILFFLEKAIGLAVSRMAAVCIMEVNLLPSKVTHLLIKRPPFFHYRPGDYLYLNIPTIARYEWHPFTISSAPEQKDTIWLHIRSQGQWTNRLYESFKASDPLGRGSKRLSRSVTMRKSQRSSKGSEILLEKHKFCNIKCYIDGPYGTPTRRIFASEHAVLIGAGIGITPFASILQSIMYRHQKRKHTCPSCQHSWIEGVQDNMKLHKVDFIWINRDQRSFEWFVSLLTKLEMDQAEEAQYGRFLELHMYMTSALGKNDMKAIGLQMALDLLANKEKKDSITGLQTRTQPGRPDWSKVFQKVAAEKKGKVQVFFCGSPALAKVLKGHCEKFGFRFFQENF
Label Condition met for high-side z-score (at or above -2) and Condition not met for low-side z-score (below it).

(Q) Decide: z-score of COc1cc2c(cc1O)C=[N+](C)CC2 >= -2?
(A) Condition not met

(Q) Decide: z-score of COC(=O)[C@@]1(Cc2ccccc2)[C@H]2c3cc(C(=O)N(C)C)[nH]c3C[C@H]2CN1C(=O)c1ccccc1 >= -2?
(A) Condition not met

(Q) Decide: z-score of OCc1ccc(C2=CC(C3CC3)N(Cc3sc4ccccc4c3Cl)CC2)cc1 (stereo unspecified) >= -2?
(A) Condition met

(Q) Decide: z-score of COC(=O)[C@H]1C(=O)c2ccccc2O[C@@](C(=O)OC)(c2ccccc2)[C@@H]1c1ccccc1 >= -2?
(A) Condition met

(Q) Decide: z-score of C=C(CC1(C(C)NP(=O)(c2ccccc2)c2ccccc2)CC1)c1ccccc1 (stereo unspecified) >= -2?
(A) Condition not met

(Q) Decide: z-score of CCCc1cc2c(n1Cc1cccc(Cl)c1)C(C)C1CN(C(=O)c3ccccc3)C(C)(C(=O)OC)C21 (stereo unspecified) >= -2?
(A) Condition not met

###

assay: optical density change of DRC41 E. coli – strain DRC41, OD650, 24 h, E. coli filamentation project, primary screen (AID 1093);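 also: MC1000 strain lacking acrAB efflux and sulA so SOS filamentation is blocked; test concentration not given here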; conditions: E. coli DRC41 growth; higher = more signal, called active from +8 up or from −8 down unless noted
Active and inactive are the calls of the source.
Endpoint: z-score

(Q) For the compound OCc1ccc(C2=CC(C3CC3)N(Cc3sc4ccccc4c3Cl)CC2)cc1 (centres undefined) , what z-score is on record?
(A) -1.09 (inactive)

(Q) For the compound c1ccc(-c2cc3c(nc2-c2ccccc2)CCNC3)cc1 , what z-score is on record?
(A) -0.0201 (inactive)

(Q) For the compound CCCc1cc2c(n1Cc1ccco1)C(C)C1CN(C(=O)c3ccccc3)C(C)(C(=O)OC)C21 (centres undefined) , what z-score is on record?
(A) -0.773 (inactive)

(Q) For the compound COC(=O)C1(C)C=C2C(=C(C)C(=O)C2C)CN1 (centres undefined) , what z-score is on record?
(A) -1.5 (inactive)

(Q) For the compound C[C@@H]1OC=C2[C@@H](O)[C@H]3O[C@H]3C(=O)[C@]23[C@H]1[C@H]1C2=C([C@@H](O)[C@H]4O[C@H]4C2=O)[C@@H]3O[C@@H]1C , what z-score is on record?
(A) -0.101 (inactive)

(Q) For the compound COC(=O)[C@@]1(Cc2ccc(F)cc2)[C@H]2c3cc(C(=O)N(C)C)[nH]c3C[C@H]2CN1C(=O)c1ccccc1 , what z-score is on record?
(A) -0.152 [setting not given] (inactive)

(Q) For the compound CN1CCC(c2ccc(CO)cc2)=CC1C1CC1 (centres undefined) , what z-score is on record?
(A) -0.409 (inactive)

(Q) For the compound COc1cc2c(cc1O)C(C)N(C)CC2 (centres undefined) , what z-score is on record?
(A) 0.891 (inactive)

(Q) For the compound COC(=O)[C@H]1[C@@H](O)[C@@]2(O)c3c(OC)cc(OC)cc3O[C@@]2(c2ccc(OC)cc2)[C@@H]1c1ccccc1 , what z-score is on record?
(A) 0.449 (inactive)

###

assay: probe aDKK1 binding to arrayed compounds – biochemical, biotinylated probe, 635/667 nm fluorescence, primary screen (AID 1099); details: higher = more signal; small-molecule microarray, probe aDKK1, fluorescence unless noted;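 also: score merges 667nm spot fluorescence with signal to noise across triplicate slides; reference of the scale not given here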
Dear colleague, classification is by composite z-score, with ranges listed here: class A (below -0.3), class B (-0.3 to below 0.1), class C (0.1 or more)

(Q) Please indicate the class for CCCc1cc2c(n1CCO)C(C)C1CN(C(=O)c3ccccc3)C(C)(C(=O)OC)C21 (configuration not stated) based on its composite z-score.
(A) class C

(Q) Please indicate the class for C[C@@H]1Cc2c(cnc3c2CN(C)CC3)CO1 based on its composite z-score.
(A) class B

(Q) Please indicate the class for C=C(CC1(CNP(=O)(c2ccccc2)c2ccccc2)CC1)c1ccccc1 based on its composite z-score.
(A) class C

(Q) Please indicate the class for CCOC(=O)[C@H]1CC=C2C(=O)Oc3ccc(Br)cc3[C@@H]21 based on its composite z-score.
(A) class B

(Q) Please indicate the class for CCCc1cc2c(n1Cc1ccc(C)cc1)C(C)C1CN(C(=O)c3ccccc3)C(C)(C(=O)OC)C21 (configuration not stated) based on its composite z-score.
(A) class C

(Q) Please indicate the class for COC(=O)[C@@]1(Cc2ccccc2)[C@H]2c3cc(C(=O)N(C)C)n(C)c3C[C@H]2CN1C(=O)c1ccccc1 based on its composite z-score.
(A) class B

(Q) Please indicate the class for CN1CCC(c2ccc(CO)cc2)=CC1C1CC1 (configuration not stated) based on its composite z-score.
(A) class A

(Q) Please indicate the class for COc1cc2c(cc1O)C=[N+](C)CC2 based on its composite z-score.
(A) class C

(Q) Please indicate the class for CN1CCC(c2ccc(CO)cc2)=CC1c1cccs1 (configuration not stated) based on its composite z-score.
(A) class A

(Q) Please indicate the class for C[C@H]1O[C@H]2C3=C(C(=O)[C@@H]4O[C@@H]4[C@@H]3O)[C@@H]1[C@@H]1[C@@H](C)OC=C3[C@@H](O)[C@H]4O[C@H]4C(=O)[C@]312 based on its composite z-score.
(A) class A

(Q) Please indicate the class for c1ccc(-c2cc3c(nc2-c2ccccc2)CCNC3)cc1 based on its composite z-score.
(A) class B

###

experiment: probe aCHRDL2 binding to arrayed compounds – biochemical, biotinylated probe, 635/667 nm fluorescence, primary screen (AID 1100); settings: higher = more signal; small-molecule microarray, probe aCHRDL2, fluorescence unless noted
Label satisfied for high-side composite z-score (at or above -0.4) and not satisfied for low-side composite z-score (below it).

(Q) Decide: composite z-score of COC(=O)[C@H]1[C@@H](O)[C@@]2(O)c3c(OC)cc(OC)cc3O[C@@]2(c2ccc(OC)cc2)[C@@H]1c1ccccc1 >= -0.4?
(A) not satisfied

(Q) Decide: composite z-score of COC(=O)[C@H]1[C@H](c2ccccc2)C(=O)[C@]2(O)c3ccccc3O[C@@]12c1ccccc1 >= -0.4?
(A) not satisfied

(Q) Decide: composite z-score of CCc1cc2c(nc1CC)CCN(CCC(C)=NOC)C2 >= -0.4?
(A) satisfied

(Q) Decide: composite z-score of CCOC(=O)[C@H]1CC=C2C(=O)Oc3ccc(Br)cc3[C@@H]21 >= -0.4?
(A) satisfied

(Q) Decide: composite z-score of C[C@@H]1Cc2c(cnc3c2CN(C)CC3)CO1 >= -0.4?
(A) satisfied

(Q) Decide: composite z-score of CCCC[C@@H]1C[C@H]1[C@@H](NP(=O)(c1ccccc1)c1ccccc1)c1ccc(Cl)cc1 >= -0.4?
(A) satisfied

(Q) Decide: composite z-score of COC(=O)[C@H]1C(=O)c2ccccc2O[C@@](C(=O)OC)(c2ccccc2)[C@@H]1c1ccccc1 >= -0.4?
(A) satisfied

(Q) Decide: composite z-score of OCc1ccc(C2=CC(c3cccs3)N(Cc3cccc(OC(F)(F)F)c3)CC2)cc1 (stereo unspecified) >= -0.4?
(A) satisfied

(Q) Decide: composite z-score of OCc1ccc(C2=CC(C3CC3)N(Cc3sc4ccccc4c3Cl)CC2)cc1 (stereo unspecified) >= -0.4?
(A) satisfied

###

assay: compound effects on hepatocellular carcinoma cell viability – HepG2, calcein-AM fluorescence, 48 h, basal, profiling panel (AID 1164); conditions: higher = more signal; also: test concentration not given here
I'd be grateful if you could share measured z-score for these entries.
Lab note: record just the number, no unit beside it.

(Q) For the compound COc1cc2c(cc1O)C=[N+](C)CC2 , what z-score is on record?
(A) 0.496

(Q) For the compound COC(=O)[C@@]1(Cc2ccccc2)[C@H]2c3cc(C(=O)N(C)C)[nH]c3C[C@H]2CN1C(=O)c1ccccc1 , what z-score is on record?
(A) -0.78

(Q) For the compound CCCc1cc2c(n1Cc1cccc(Cl)c1)C(C)C1CN(C(=O)c3ccccc3)C(C)(C(=O)OC)C21 (configuration not stated) , what z-score is on record?
(A) 0.101

(Q) For the compound CCCc1cc2c(n1Cc1ccco1)C(C)C1CN(C(=O)c3ccccc3)C(C)(C(=O)OC)C21 (configuration not stated) , what z-score is on record?
(A) -0.369

(Q) For the compound C[C@H]1O[C@H]2C3=C(C(=O)[C@@H]4O[C@@H]4[C@@H]3O)[C@@H]1[C@@H]1[C@@H](C)OC=C3[C@@H](O)[C@H]4O[C@H]4C(=O)[C@]312 , what z-score is on record?
(A) 0.0608

(Q) For the compound COC(=O)C1(C)C=C2C(=C(C)C(=O)C2C)CN1 (configuration not stated) , what z-score is on record?
(A) -1.21

(Q) For the compound COC(=O)[C@H]1[C@@H](O)[C@@]2(O)c3c(OC)cc(OC)cc3O[C@@]2(c2ccc(OC)cc2)[C@@H]1c1ccccc1 , what z-score is on record?
(A) -2.23

(Q) For the compound OCc1ccc(C2=CC(c3cccs3)N(Cc3cccc(OC(F)(F)F)c3)CC2)cc1 (configuration not stated) , what z-score is on record?
(A) -0.65

(Q) For the compound CCCc1cc2c(n1CCO)C(C)C1CN(C(=O)c3ccccc3)C(C)(C(=O)OC)C21 (configuration not stated) , what z-score is on record?
(A) 0.436

(Q) For the compound COC(=O)NCC=Cc1nc(CCC=CC(=O)O[C@H]2CC3CC(=O)O[C@@H](C=CCC(C)C)C[C@@H]4CC[C@H](C)[C@@H](C[C@@H](OC)C[C@H](C2)O3)O4)co1 , what z-score is on record?
(A) -1.29

(Q) For the compound CCOC(=O)[C@H]1CC=C2C(=O)Oc3ccccc3[C@@H]21 , what z-score is on record?
(A) -1.13

(Q) For the compound OCc1ccc(C2=CC(C3CC3)N(Cc3sc4ccccc4c3Cl)CC2)cc1 (configuration not stated) , what z-score is on record?
(A) -0.328

(Q) For the compound C=C(CC1(CNP(=O)(c2ccccc2)c2ccccc2)CC1)c1ccccc1 , what z-score is on record?
(A) -1.36

(Q) For the compound C[C@@H]1Cc2c(cnc3c2CN(C)CC3)CO1 , what z-score is on record?
(A) -0.153

(Q) For the compound CN1CCc2nc(CO)c(CO)cc2C1 , what z-score is on record?
(A) 0.0749

(Q) For the compound COC(=O)[C@H]1C(=O)c2ccccc2O[C@@](C(=O)OC)(c2ccccc2)[C@@H]1c1ccccc1 , what z-score is on record?
(A) 0.159

(Q) For the compound COC(=O)[C@@]1(Cc2ccc(F)cc2)[C@H]2c3cc(C(=O)N(C)C)[nH]c3C[C@H]2CN1C(=O)c1ccccc1 , what z-score is on record?
(A) 0.337
